Origin of values: PubChem BioAssay AID292

test system: B6C3F1 mice, ip Sarcoma M5076, median survival T/C; experiment: NCI In Vivo Anticancer Drug Screen. Data for tumor model Sarcoma M5076 (intraperitoneal) in B6C3F1 mice; conditions: endpoint: median survival time; dose: 50.0 mg/kg/injection; schedule: Q04DX004 (ip); vehicle: saline with Tween-80; higher = longer survival
Toxic doses and inconclusive results are not listed.
A collection of compounds and their measured T/C

Recorded results for 5 compounds are shown here.
- compound: "N=C(N)c1ccc(N=NNc2ccc(C(=N)N)cc2)cc1"
  T/C: "97 % of control"
- compound: "Cc1c(/C=C/C(=O)O)no[n+]1[O-]"
  T/C: "101 % of control"
- compound: "Cn1c(=O)c2nncnc2n(C)c1=O"
  T/C: "94 % of control"
- compound: "NC(=O)c1[nH]cnc1O"
  T/C: "102 % of control"
- compound: "Nc1ccccc1Sc1cc(Cl)nnc1Cl"
  T/C: "97 % of control"

## Input Please give the documented T/C of c1ccc(-c2nc3cc4c(cc3n3cccc23)oc2ccccc24)cc1
## Output 101 % of control

## Input Please give the documented T/C of c1ccc2c(c1)[nH]c1c2c(N2CCOCC2)nn2cnnc12
## Output 100 % of control

## Input Please give the documented T/C of COC1CCCCC1C(N)C(=O)O (configuration not stated) (tested in a mixture with another compound)
## Output 91 % of control

## Input Please give the documented T/C of CCNC(=O)[B-][N+](C)(C)C
## Output 96 % of control

## Input Please give the documented T/C of CCOC(=O)C1=C(Nc2ccc(OC)cc2)C(N)=NC1=N
## Output 101 % of control

## Input Please give the documented T/C of C[n+]1c(-c2ccc(/C=N/NC(=O)c3ccc(C(=O)N/N=C/c4ccc(-c5cn6ccccc6[n+]5C)cc4)cc3)cc2)cn2ccccc21
## Output 104 % of control

## Input Please give the documented T/C of Nc1ccc2ccc(N)cc2c1
## Output 96 % of control

----------
test system: B6C3F1 mice, ip Sarcoma M5076, median survival T/C; assay: NCI In Vivo Anticancer Drug Screen. Data for tumor model Sarcoma M5076 (intraperitoneal) in B6C3F1 mice; conditions: endpoint: median survival time; dose: 15.0 mg/kg/injection; schedule: Q04DX004 (ip); vehicle: saline; higher = longer survival
Inconclusive results and toxic doses are left out.
A collection of compounds and their measured T/C

## Input Please give the documented T/C of CN=C(N)c1ccc(N=C(N)c2ccc(C(N)=Nc3ccc(C(N)=NC)cc3)cc2)cc1
## Output 98 % of control

## Input Please give the documented T/C of CN1CCC2CC1c1ccn(C)c1C2=O (centres undefined)
## Output 107 % of control

## Input Please give the documented T/C of CN(C)CCCN=c1c2ccccc2n(C)c2[nH]c(=O)n(C)c(=O)c12
## Output 99 % of control

## Input Please give the documented T/C of Cc1c(O)c2ccccc2c2c1sc(NCCCN(CCO)CCO)[n+]2C
## Output 98 % of control

----------
test system: B6C3F1 mice, ip Sarcoma M5076, median survival T/C; assay: NCI In Vivo Anticancer Drug Screen. Data for tumor model Sarcoma M5076 (intraperitoneal) in B6C3F1 mice; details: endpoint: median survival time; dose: 300.0 mg/kg/injection; schedule: Q04DX004 (ip); vehicle: saline; higher = longer survival
Inconclusive results and toxic doses are left out.
parameter: T/C

Recorded results for 5 compounds are shown here.
- compound: "O=CC(O)C(O)C(O)C(O)CO (centres undefined)"
  T/C: "96 % of control"
- compound: "NC(CCC(=O)NC(CS)C(=O)NCC(=O)O)C(=O)O (centres undefined)"
  T/C: "102 % of control"
- compound: "O=C(NNC(=S)NC1OC(CO)C(O)C(O)C1O)c1cccc(C(=O)NNC(=S)NC2OC(CO)C(O)C(O)C2O)n1 (centres undefined)"
  T/C: "96 % of control"
- compound: "O=CC(CO)CC(C=O)n1cnc2c(=O)[nH]cnc21 (centres undefined)"
  T/C: "124 % of control"
- compound: "C1CCC(NC2CCCCC2)CC1"
  T/C: "100 % of control"

## Input Please give the documented T/C of CC(=O)NCCSSCCCCS(=O)O
## Output 97 % of control

## Input Please give the documented T/C of [N-]=[N+]=NCc1cnnn1C1OC(CO)C(O)C1O (centres undefined)
## Output 107 % of control

## Input Please give the documented T/C of NC(Cn1ccc(=O)c(O)c1)C(=O)O (centres undefined)
## Output 103 % of control

## Input Please give the documented T/C of CC(=O)N1CCCN(C)/C1=N/[N+](=O)[O-]
## Output 100 % of control

----------
System: B6C3F1 mice, ip Sarcoma M5076, median survival T/C
Test: NCI In Vivo Anticancer Drug Screen. Data for tumor model Sarcoma M5076 (intraperitoneal) in B6C3F1 mice
Settings: endpoint: median survival time; dose: 600.0 mg/kg/injection; schedule: Q04DX004 (ip); vehicle: Klucel (hydroxypropylcellulose) (HPC); higher = longer survival
Method: The antitumor activity of compounds was measured in mice bearing transplantable tumors. Survival or tumor size were measured and the results are expressed as the measurement made in the treated group (T) divided by the measurement made in the vehicle treated control group (C). The tumor model used in this assay is Sarcoma M5076 (intraperitoneal) in B6C3F1 mice
Inconclusive results and toxic doses are left out.
A collection of compounds and their measured T/C

Recorded results for 7 compounds are shown here.
- compound: "O=c1oc2c(O)c(O)cc3c(=O)oc4c(O)c(O)cc1c4c23"
  system_name: "B6C3F1 mice, ip Sarcoma M5076, median survival T/C"
  observed_value: "111 % of control"
- compound: "N#CC1C(=O)NC(=S)NC1c1ccc(Cl)c(Cl)c1 (stereo not drawn)"
  system_name: "B6C3F1 mice, ip Sarcoma M5076, median survival T/C"
  observed_value: "89 % of control"
- compound: "O=C1CN2Cc3c(sc4c3CCCC4)N=C2N1"
  system_name: "B6C3F1 mice, ip Sarcoma M5076, median survival T/C"
  observed_value: "100 % of control"
- compound: "O=C(Nc1cccc(C(F)(F)F)c1)C(Cl)=C(Cl)Cl"
  system_name: "B6C3F1 mice, ip Sarcoma M5076, median survival T/C"
  observed_value: "87 % of control"
- compound: "Cn1cnc([N+](=O)[O-])c1SCC(=O)O"
  system_name: "B6C3F1 mice, ip Sarcoma M5076, median survival T/C"
  observed_value: "93 % of control"
- compound: "Cn1c2ccccc2c2oc(CO)cc(=O)c21"
  system_name: "B6C3F1 mice, ip Sarcoma M5076, median survival T/C"
  observed_value: "91 % of control"
- compound: "COc1ccc(-n2c(SCC(=O)NC(=O)Nc3ccccc3)nc3c(Br)cc(Br)cc3c2=O)cc1"
  system_name: "B6C3F1 mice, ip Sarcoma M5076, median survival T/C"
  observed_value: "90 % of control"

# context switch: different compound, same T/C
## Input Tell me T/C of O=c1[nH]cnc2n[nH]nc12 when tested on B6C3F1 mice, ip Sarcoma M5076, median survival T/C.
## Output 95 % of control

----------
A collection of compounds and their measured T/C
tested on: B6C3F1 mice, ip Sarcoma M5076, median survival T/C; experiment: NCI In Vivo Anticancer Drug Screen. Data for tumor model Sarcoma M5076 (intraperitoneal) in B6C3F1 mice; settings: endpoint: median survival time; dose: 87.5 mg/kg/injection; schedule: Q04DX004 (ip); vehicle: Klucel (hydroxypropylcellulose) (HPC); higher = longer survival
Inconclusive results and toxic doses are left out.

Recorded results for 3 compounds are shown here.
- compound: "O=C1C(=O)N(c2cccc(Cl)c2)C(=O)N1Cc1ccccc1"
  system_name: "B6C3F1 mice, ip Sarcoma M5076, median survival T/C"
  T/C: "97 % of control"
- compound: "O=C1C(=O)N(c2ccccc2Cl)C(=O)N1Cc1ccccc1"
  system_name: "B6C3F1 mice, ip Sarcoma M5076, median survival T/C"
  T/C: "98 % of control"
- compound: "COc1ccc(CCN2C(=O)C(=O)N(c3cccc(Cl)c3)C2=O)cc1OC"
  system_name: "B6C3F1 mice, ip Sarcoma M5076, median survival T/C"
  T/C: "91 % of control"

# context switch: different compound, same T/C
## Input Please give the documented T/C of COc1ccccc1N1C(=O)C(=O)C(C(C)=O)C1=O (centres undefined)
## Output 98 % of control

----------
test system: B6C3F1 mice, ip Sarcoma M5076, median survival T/C; assay: NCI In Vivo Anticancer Drug Screen. Data for tumor model Sarcoma M5076 (intraperitoneal) in B6C3F1 mice; details: endpoint: median survival time; dose: 250.0 mg/kg/injection; schedule: Q04DX004 (ip); vehicle: saline with Tween-80; higher = longer survival
Inconclusive results and toxic doses are left out.
parameter: T/C

Recorded results for 5 compounds are shown here.
- compound: "O=S1(=O)C(c2ccccc2)=C(O)c2cc3ccccc3nc21"
  observed_value: "102 % of control"
- compound: "Cn1c(=S)[nH]n(CCOc2ccccc2)c1=S"
  observed_value: "100 % of control"
- compound: "CCN(CC)Cc1c(OC)ccc2[nH]c3c4ccc(Cl)cc4ncc3c12"
  observed_value: "100 % of control"
- compound: "O=C1CN2CCN3CC(=O)NC(=O)[C@H]3[C@@H]2C(=O)N1"
  observed_value: "100 % of control"
- compound: "NC(=O)C(N)C(F)c1ccccc1 (stereo unspecified)"
  observed_value: "96 % of control"

# context switch: different compound, same T/C
## Input Tell me T/C of CCOC(=O)c1c(C(=O)OC)nc2n1-c1ccccc1OC2 when tested on B6C3F1 mice, ip Sarcoma M5076, median survival T/C.
## Output 88 % of control
